List of pKd values.
tested_target: T1, Human IL22 (human, UniProt Q9GZX6 34-179)
T1 construct: IL22 of the Biacore and cell assays
T1 sequence: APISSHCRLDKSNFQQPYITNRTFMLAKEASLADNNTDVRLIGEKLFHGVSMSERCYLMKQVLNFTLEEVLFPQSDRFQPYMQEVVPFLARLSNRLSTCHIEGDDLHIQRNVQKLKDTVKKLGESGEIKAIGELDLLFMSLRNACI
assay_details: SPR (Biacore); Fab variant, human IL22
Note: pKd values are expressed as the negative base-10 logarithm of concentration in M.

Use the examples below as a reference point.
binder	pKd
11041gL13gH14 Fab (Fab, V domains shown, also called 11041gL6 C91S S96A gH5 D54E) VH: EVQLVESGGGLVQPGGSLRLSCAVSGFSLSSYAMIWVRQAPGKGLEWIGIIDIEGSTYYASWAKGRFTISRDNSKNTVYLQMNSLRAEDTAVYYCARDRFVGVDIFDPWGQGTLVTVSS VL: AVQLTQSPSSLSASVGDRVTITCQASEDIYTNLAWYQQKPGKAPKLLIYWASTLASGVPSRFSGSGSGTDFTLTISSLQPEDFATYYCQASVYGNAADSRYTFGGGTKVEIKR	10.90
11041gL7 C91S S96A gH8 D54E (Fab, V domains shown, V-regions only; also called 11041gL14gH15) VH: EVQLVESGGGLVQPGGSLRLSCAVSGFSLSSYAMIWVRQAPGKGLEWIGIIDIEGSTYYASWAKGRFTISRDSSKNTLYLQMNSLRAEDTAVYYCARDRFVGVDIFDPWGQGTLVTVSS VL: AIQLTQSPSSLSASVGDRVTITCQASEDIYTNLAWYQQKPGKAPKLLIYWASTLASGVPSRFSGSGSGTDFTLTISSLQPEDFATYYCQASVYGNAADSRYTFGGGTKVEIK	9.98

Now take the following binder into account.
Given the binder 11041gL1 C91S S96A gH5 D54E (Fab, V domains shown, heavy chain is the gH5 D54E (gH14) Fab heavy chain; also called 11041gL10gH14) VH: EVQLVESGGGLVQPGGSLRLSCAVSGFSLSSYAMIWVRQAPGKGLEWIGIIDIEGSTYYASWAKGRFTISRDNSKNTVYLQMNSLRAEDTAVYYCARDRFVGVDIFDPWGQGTLVTVSS VL: AVVLTQSPSSLSASVGDRVTITCQASEDIYTNLAWYQQKPGKAPKLLIYWASTLASGVPSRFSGSGSGTDFTLTISSLQPEDFATYYCQASVYGNAADSRYTFGGGTKVEIK , what is its reported pKd? 10.63
